Recorded values, source patent US20110009420A1.

Where a name gives a salt, the structure may show the parent alone.

[
  {
    "COMPOUND": "O=C(c1cccc(Oc2ccccc2)c1)N1CCN(CCCN2CCCCC2)CC1 (as salt: hydrochloride) [Compound A21B12]",
    "melting point": "274 to 276 °C"
  },
  {
    "COMPOUND": "O=C(CC1c2ccccc2-c2ccccc21)N1CCN(CCCN2CCCCC2)CC1 (as salt: hydrochloride) (hydrate or solvate) [Compound A18B12, dihydrochloride]",
    "melting point": "263 to 265 °C"
  },
  {
    "COMPOUND": "O=C(Cc1c[nH]c2ccccc12)N1CCN(CCCN2CCCCC2)CC1 (as salt: hydrochloride) [Compound A14B12]",
    "melting point": "256 to 258 °C"
  },
  {
    "COMPOUND": "O=C(Cc1ccc(-c2ccccc2)cc1)N1CCN(CCCN2CCCCC2)CC1 (as salt: hydrochloride) (hydrate or solvate) [Compound A15B12]",
    "melting point": "274 to 276 °C"
  },
  {
    "COMPOUND": "O=C(c1cc2ccccc2o1)N1CCN(CCCN2CCCCC2)CC1 (as salt: hydrochloride) (hydrate or solvate) [Compound A12B12, dihydrochloride]",
    "melting point": "253 to 255 °C"
  },
  {
    "COMPOUND": "COc1ccc2oc(C(=O)N3CCN(CCCN4CCCCC4)CC3)cc2c1 (as salt: hydrochloride) (hydrate or solvate) [Compound A13B12]",
    "melting point": "255 to 257 °C"
  },
  {
    "COMPOUND": "O=C(c1cc2ccccc2s1)N1CCN(CCCN2CCCCC2)CC1 (as salt: hydrochloride) (hydrate or solvate) [Compound A11B12]",
    "melting point": "265 to 267 °C"
  }
]

----------
# SUBJECT_OF_TEST: human histamine H3 receptor (Homo sapiens, UniProt Q9Y5N1)
# Construct: expressed in transfected cells
# Sequence (Q9Y5N1 whole entry): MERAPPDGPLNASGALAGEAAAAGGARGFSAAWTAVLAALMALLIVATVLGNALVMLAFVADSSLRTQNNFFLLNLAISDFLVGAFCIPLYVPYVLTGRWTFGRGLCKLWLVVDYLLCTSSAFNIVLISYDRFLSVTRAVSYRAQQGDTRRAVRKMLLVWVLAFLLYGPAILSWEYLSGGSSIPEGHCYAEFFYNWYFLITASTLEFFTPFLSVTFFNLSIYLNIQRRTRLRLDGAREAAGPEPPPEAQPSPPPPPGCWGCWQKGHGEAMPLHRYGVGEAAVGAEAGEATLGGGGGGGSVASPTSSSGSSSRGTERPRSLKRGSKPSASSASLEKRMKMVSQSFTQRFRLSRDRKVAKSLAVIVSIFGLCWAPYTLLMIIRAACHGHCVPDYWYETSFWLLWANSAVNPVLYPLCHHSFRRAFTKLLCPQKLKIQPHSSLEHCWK
# PROTOCOL_SUMMARY: functional [35S]GTPγS binding assay (antagonist potency, inhibition of RAMHA-stimulated binding)
# Type: biochemical
Structures can show the parent of a compound that is named as a salt.
inhibition at 3.5 µM reference
MEASURED_ENDPOINT: inhibition at 3.5 µM (%)

[
  {
    "MOLECULE": "O=C(c1cc2ccccc2s1)N1CCN(CCCN2CCCCC2)CC1",
    "SUBJECT_OF_TEST": "human histamine H3 receptor (Homo sapiens, UniProt Q9Y5N1)",
    "VALUE_REPORTED": 57
  },
  {
    "MOLECULE": "O=C(Cc1ccc(-c2ccccc2)cc1)N1CCN(CCCN2CCCCC2)CC1",
    "SUBJECT_OF_TEST": "human histamine H3 receptor (Homo sapiens, UniProt Q9Y5N1)",
    "VALUE_REPORTED": 56
  },
  {
    "MOLECULE": "O=C(c1cc2ccccc2o1)N1CCN(CCCN2CCCCC2)CC1 [Compound A12B12, dihydrochloride]",
    "SUBJECT_OF_TEST": "human histamine H3 receptor (Homo sapiens, UniProt Q9Y5N1)",
    "VALUE_REPORTED": 70
  },
  {
    "MOLECULE": "O=C(c1cccc(Oc2ccccc2)c1)N1CCN(CCCN2CCCCC2)CC1",
    "SUBJECT_OF_TEST": "human histamine H3 receptor (Homo sapiens, UniProt Q9Y5N1)",
    "VALUE_REPORTED": 62
  },
  {
    "MOLECULE": "O=C(Cc1c[nH]c2ccccc12)N1CCN(CCCN2CCCCC2)CC1",
    "SUBJECT_OF_TEST": "human histamine H3 receptor (Homo sapiens, UniProt Q9Y5N1)",
    "VALUE_REPORTED": 73
  },
  {
    "MOLECULE": "COc1ccc2oc(C(=O)N3CCN(CCCN4CCCCC4)CC3)cc2c1",
    "SUBJECT_OF_TEST": "human histamine H3 receptor (Homo sapiens, UniProt Q9Y5N1)",
    "VALUE_REPORTED": 60
  },
  {
    "MOLECULE": "O=C(CC1c2ccccc2-c2ccccc21)N1CCN(CCCN2CCCCC2)CC1 [Compound A18B12, dihydrochloride]",
    "SUBJECT_OF_TEST": "human histamine H3 receptor (Homo sapiens, UniProt Q9Y5N1)",
    "VALUE_REPORTED": 74
  }
]
